Target system: sodium channel (Nach)
Assay name: Inhibition of binding of [3H]BTX-B to rat forebrain homogenates
Condition set: extrapolated IC50; [3H]BTX-B binding
Procedure: Experiments were performed using forebrain (whole brain less cerebellum/medulla) from Male Wistar rats weighing 175-250 g. All efforts were made to reduce the number of animals used and all experiments were carried out in accordance with the UK Animals (Scientific Procedures) Act, 1986 and the European Community Council Directive of 24 Nov. 1986 (86/609/EEC). […]
Property label: IC50

Compound	IC50
Nc1nnc(C2CC2c2ccccc2)c(N)n1 (stereo not drawn)	> 190 µM
Cc1ccc(C2(c3nnc(N)nc3N)CCCCC2)cc1	< 0.5 µM

Please turn your attention to the following entry.
[in] Give its IC50 value. Item: Cc1ccc(C2(c3nnc(N)nc3N)CCCC2)cc1
[out] < 0.5 µM
